The measurements presented in this section are drawn from patent US20200216441A1.

Tested on: Myzus persicae (Green Peach Aphid)
assay.procedure: whole plant or invertebrate
Format: in vivo
condition.notes: 144 h, test rate of 24 ppm, systemic, roots of infested pea seedlings in test solution, 6 days
experimental.readout: mortality at 24 ppm

Worked set:
INSERT INTO measurements (molecule, experimental_readout, value_reported) VALUES
  ('CCS(=O)(=O)c1cc(OC(C)(C)CC#N)cnc1-c1nc2cc(C(F)(F)F)ncc2n1C [Compound P47]', 'mortality at 24 ppm', '≥ 80%'),
  ('CCS(=O)(=O)c1cc(OC(C)(C)C#N)cnc1-c1nc2cc(C(F)(F)F)ncc2n1C [Compound P18]', 'mortality at 24 ppm', '≥ 80%'),
  ('CCS(=O)(=O)c1cc(OC2(C)COC2)cnc1-c1nc2cc(C(F)(F)F)ncc2n1C [Compound P4]', 'mortality at 24 ppm', '≥ 80%'),
  ('CCS(=O)(=O)c1cc(O[C@H]2C[C@@H](C#N)C2)cnc1-c1nc2cc(C(F)(F)F)ncc2n1C [Compound P46]', 'mortality at 24 ppm', '≥ 80%'),
  ('CCS(=O)(=O)c1cc(OC(C)(C)C(N)=O)cnc1-c1nc2cc(C(F)(F)F)ncc2n1C [Compound P89]', 'mortality at 24 ppm', '≥ 80%');

State the recorded mortality at 24 ppm for every item in the following list.
1. CCS(=O)(=O)c1cc(OC(C)C)cnc1-c1nc2cc(S(=O)(=O)C(F)(F)F)ncc2n1C [Compound P72]
2. CCS(=O)(=O)c1cc(OCCCC#N)cnc1-c1nc2cc(C(F)(F)F)ncc2n1C [Compound P70]
3. CCS(=O)(=O)c1cc(OC(C)(C)CSC)cnc1-c1nc2cc(C(F)(F)F)ncc2n1C [Compound P50]

≥ 80%
≥ 80%
≥ 80%
